target.entity: FGFR1 (h) (Homo sapiens)
Sequence (P11362 22-822): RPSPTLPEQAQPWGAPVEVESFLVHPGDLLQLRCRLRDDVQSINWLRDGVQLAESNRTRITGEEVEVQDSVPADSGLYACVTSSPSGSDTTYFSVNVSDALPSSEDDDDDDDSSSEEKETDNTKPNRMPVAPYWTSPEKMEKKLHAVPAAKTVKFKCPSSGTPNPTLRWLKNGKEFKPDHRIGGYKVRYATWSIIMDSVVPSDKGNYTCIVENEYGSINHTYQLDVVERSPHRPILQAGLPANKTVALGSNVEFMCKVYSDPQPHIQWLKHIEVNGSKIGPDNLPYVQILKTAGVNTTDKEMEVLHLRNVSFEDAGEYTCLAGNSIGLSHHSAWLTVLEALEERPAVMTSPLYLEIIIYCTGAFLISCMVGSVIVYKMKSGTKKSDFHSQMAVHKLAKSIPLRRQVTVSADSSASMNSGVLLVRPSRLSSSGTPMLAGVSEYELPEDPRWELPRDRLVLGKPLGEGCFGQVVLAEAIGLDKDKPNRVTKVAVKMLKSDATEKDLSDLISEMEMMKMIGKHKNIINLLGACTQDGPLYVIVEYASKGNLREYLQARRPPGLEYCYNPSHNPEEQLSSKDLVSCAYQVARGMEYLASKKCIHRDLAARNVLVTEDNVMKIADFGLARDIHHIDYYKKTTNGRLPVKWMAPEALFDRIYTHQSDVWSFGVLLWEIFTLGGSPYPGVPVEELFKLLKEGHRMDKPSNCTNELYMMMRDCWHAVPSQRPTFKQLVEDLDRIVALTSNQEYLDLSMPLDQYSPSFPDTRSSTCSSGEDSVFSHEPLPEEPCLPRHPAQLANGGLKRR
endpoint.name: IC50 (nM)
Hi! Could you send only the number? It should be in nM, unit omitted.

## Task Give recorded IC50 with FGFR1 (h) (Homo sapiens) for the following molecule: "COc1cc(OC)c(Cl)c(-c2ccc3c(/C=C/c4ccc(N(C)C(=O)CN5CCN(C)CC5)cc4)n[nH]c3c2)c1Cl"
## Result 4

---

assay.comment: Pharmacokinetics study after IV and PO administration to SD rats
Assay type: in vivo
protocol.conditions: rat, plasma, iv; SD rats, i.v. 2 mg·kg^−1
Method: The appropriate amount of YTH‐60 was accurately weighed, added to the final volume of 5% DMSO, 40% PEG400 and 55% normal saline, and vortexed or ultrasonicated to fully mix. Then, 0.4 and 2 mg·mL^−1 of clarified dosing solution was used for intravenous administration and oral gavage administration. […]
endpoint.name: Tmax (min)
# output: bare number, implied unit min

## Task If you can, please state the reported Tmax value of "COc1cc(OC)c(Cl)c(-c2ccc3c(/C=C/c4ccc(N(C)C(=O)CN5CCN(C)CC5)cc4)n[nH]c3c2)c1Cl" .
## Result 4.8
